B1: ZNF263 (parent)
chain: VPGTQVGQGGKLWDPSVQSCKEGL

Variants of: B1
protocol.notes: protein stability index of a GFP-peptide fusion (GPS, HEK-293T) (PSI 1-6); higher = more stable;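 further: lentivirally expressed fusions sorted by FACS into six bins by GFP to DsRed ratio, PSI derived from sequencing read proportions per bin multiplied by bin number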
measurement.setup: c terminus: a fixed tail appended

- variant.string: "Q18E"
  protein stability index: 4.7
- variant.string: "G23R"
  protein stability index: 4.34
- variant.string: "D14C"
  protein stability index: 3.35
- variant.string: "G23C"
  protein stability index: 3.59
- variant.string: "L12E"
  protein stability index: 3.97
- variant.string: "D14N"
  protein stability index: 3.72
- variant.string: "G7H"
  protein stability index: 3.78
- variant.string: "V1G"
  protein stability index: 4.05
- variant.string: "V1S"
  protein stability index: 4.19
- variant.string: "K21D"
  protein stability index: 4.79
- variant.string: "T4V"
  protein stability index: 4.57
- variant.string: "V1E"
  protein stability index: 5.15
- variant.string: "K21C"
  protein stability index: 4.64
- variant.string: "P15R"
  protein stability index: 4.16
- variant.string: "V17Q"
  protein stability index: 3.8
- variant.string: "V17H"
  protein stability index: 4.1
- variant.string: "Q5L"
  protein stability index: 4.17
- variant.string: "Q8G"
  protein stability index: 4.28
- variant.string: "Q18R"
  protein stability index: 3.05
- variant.string: "V1Y"
  protein stability index: 1.85
- variant.string: "C20T"
  protein stability index: 4.25
- variant.string: "S16I"
  protein stability index: 3.15
